All figures here come from the DeepSol protein solubility set.

Assay: soluble on expression in E. coli; label from the status in PepcDB or PDB records

# RESIDUE_SEQUENCE, soluble on expression in E. coli
records = [
    ("AEALAAGQRRIAKGERDFKDRVGFLRGRARPASTLITRFIADHQGHREGPDGLRWGVESICTQLTELGVPIAPSTYYDHINREPSRRELRDGELKEHISRVHAANYGVYGARKVWLTLNREGIEVARCTVERLMTKLGLSGTTRGKARRTTIADPATARPADLVQRRFGPPAPNRLWVADLTYVSTWAGFAYVAFVTDAYARRILGWRVASTMATSMVLDAIEQAIWTRQQEGVLDLKDVIHHTDRGSQYTSIRFSERLAEAGIQPSVGAVGSSYDNALAETINGLYKTELIKPGKPWRSIEDVELATARWVDWFNHRRLYQYCGDVPPVELEAAYYAQRQRPAAG", "soluble"),
    ("MGSSHHHHHHSSGLVPRGSHMIVREGSAEILVPEVYHGPGKRGTGFYNADQKINRDITIEFIKKMGIRNVLDGFGGTGIRGIRISKETDSAVTISEVSPDSYRLIRDNVERNGSQASVINDSFECVLQHGAYEYVDVDPYGSPVPYLDAALMGVKRNGFLGVTATDQSALTGSVPHKTRIRYDALIKNDTFRHEMGIRLLIGYMAKRAASLGRFIDPLISIWHGHYYRVFVRVRKGFEGAGRMMQNLGYVNKHNLLSGIYQDMDEGPVWKGNLQDNAVAEAVLASAGHKAFNPEENRLLFCDLTDIARARHTSLPDIESVIDALSSSGHAASRTMFSPTGIKTDASCDLVESLMMDTLHRRSPA", "soluble"),
]
